- System: Escherichia coli 205
- experimental.protocol: chemotherapeutic efficacy in vivo against systemic infection in mice (method of Zak et al.)
- assay.conditions: s.c.; systemic infection in female SPF, MF2 mice
quantity.measured: ED50 Escherichia coli 205

1. CS(=O)(=O)NC(C(=O)N[C@@H]1C(=O)N2C(C(=O)[O-])=C(C[n+]3ccc(C(N)=O)cc3)CS[C@H]12)c1csc(N)n1 (stereo partly shown)    25 mg/kg
2. NCCS(=O)(=O)NC(C(=O)N[C@@H]1C(=O)N2C(C(=O)[O-])=C(CSc3nnnn3CC(=O)O)CS[C@H]12)c1csc(N)n1.[Na+] (stereo partly shown)    0,45 mg/kg
3. CN(C)CCn1nnnc1SCC1=C(C(=O)O)N2C(=O)[C@@H](NC(=O)C(NS(=O)(=O)CCN)c3csc(N)n3)[C@H]2SC1 (stereo partly shown)    0,8 mg/kg
4. NCCS(=O)(=O)NC(C(=O)N[C@@H]1C(=O)N2C(C(=O)[O-])=C(CSc3nnnn3CS(=O)(=O)O)CS[C@H]12)c1csc(N)n1.[Na+] (stereo partly shown)    6,0 mg/kg
